The origin of these recorded values is paper PMC10786891.

A collection of binders and their measured Kd
target system: T1, EsCas13d, nuclease-dead (Eubacterium siraeum, UniProt B0MS50, R295A;H300A;R849A;H854A)
T1 sequence: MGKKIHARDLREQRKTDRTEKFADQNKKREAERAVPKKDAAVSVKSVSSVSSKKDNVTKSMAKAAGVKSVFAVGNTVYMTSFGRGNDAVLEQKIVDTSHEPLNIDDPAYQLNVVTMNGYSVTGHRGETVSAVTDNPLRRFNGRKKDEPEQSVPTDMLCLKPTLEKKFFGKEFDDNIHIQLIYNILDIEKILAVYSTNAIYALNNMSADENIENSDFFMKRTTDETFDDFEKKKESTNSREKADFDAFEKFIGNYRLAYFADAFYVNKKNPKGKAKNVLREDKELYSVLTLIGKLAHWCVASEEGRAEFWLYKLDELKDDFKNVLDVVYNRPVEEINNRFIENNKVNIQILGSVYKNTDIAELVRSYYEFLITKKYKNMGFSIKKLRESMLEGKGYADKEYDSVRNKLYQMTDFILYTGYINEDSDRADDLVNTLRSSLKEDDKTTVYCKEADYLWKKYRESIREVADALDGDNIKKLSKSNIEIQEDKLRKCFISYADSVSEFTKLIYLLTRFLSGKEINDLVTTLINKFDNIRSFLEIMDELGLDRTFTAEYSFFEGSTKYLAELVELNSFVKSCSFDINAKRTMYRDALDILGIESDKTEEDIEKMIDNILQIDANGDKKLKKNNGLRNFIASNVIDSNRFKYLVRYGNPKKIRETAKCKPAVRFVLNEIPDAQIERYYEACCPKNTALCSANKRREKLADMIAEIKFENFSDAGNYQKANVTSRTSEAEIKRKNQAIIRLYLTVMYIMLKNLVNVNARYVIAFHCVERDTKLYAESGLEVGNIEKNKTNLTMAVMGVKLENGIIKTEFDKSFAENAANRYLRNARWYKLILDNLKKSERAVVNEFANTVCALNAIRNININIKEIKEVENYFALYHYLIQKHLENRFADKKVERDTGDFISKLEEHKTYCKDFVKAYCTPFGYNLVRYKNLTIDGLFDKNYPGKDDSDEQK
assay explanation: crRNA (strand 1, pre-loaded); Mg2+; 40 mM Tris-HCl pH 7.5, 150 mM NaCl, 6 mM MgCl2, 1 mM DTT, 0.1% Tween-20, 0.2 mg/ml BSA; 25 C; 10 min per concentration, then washed
details: tags: His6-TwinStrep-SUMO cleaved; N-terminal SNAP kept (SNAP-Surface 488); label: 3' end held by stalled T7 RNA polymerase
Just the number in nM, nothing appended.

Take a look at these entries with their results.
[[record]]
binder = "target 1 U8G,A18U (mixed) RNA 1: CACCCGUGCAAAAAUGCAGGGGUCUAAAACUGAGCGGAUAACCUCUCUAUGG RNA 2: GGGAAUGGAUCCACAUCUACGAAUUCGUACCAUUGAGAGGUUAGCCGCUCACCGAGAUCGGAAGAGCACACGU"
property_name = "Kd"
data_value = 80

[[record]]
binder = "target 3 C6G,A11C (mixed) RNA 1: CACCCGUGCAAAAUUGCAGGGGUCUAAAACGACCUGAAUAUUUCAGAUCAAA RNA 2: GGGAAUGGAUCCACAUCUACGAAUUCGUUUUUGAUCUGAACUAUUGAGGUCUGCAGAUCGGAAGAGCACACGU"
property_name = "Kd"
data_value = 30.1

[[record]]
binder = "target 1 U3A,U8C (mixed) RNA 1: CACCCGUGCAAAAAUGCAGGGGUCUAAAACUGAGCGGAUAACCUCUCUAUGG RNA 2: GGGAAUGGAUCCACAUCUACGAAUUCGUACCAUAGAGAGGUUACCCGCACACCGAGAUCGGAAGAGCACACGU"
property_name = "Kd"
data_value = 7.6


API: the following record is the query input.
Request: Identify the reported Kd for the following entry. target 3 insC 3' of 9,insC 3' of 7 (mixed) RNA 1: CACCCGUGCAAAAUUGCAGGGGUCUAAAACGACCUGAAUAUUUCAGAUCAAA RNA 2: GGGAAUGGAUCCACAUCUACGAAUUCGUUUUUGAUCUGAAAUACUUCCAGGUCUGCAGAUCGGAAGAGCACACGU
Result: 113
